Target: Estrogen receptor (Homo sapiens, UniProt P03372)
Sequence (P03372 whole entry): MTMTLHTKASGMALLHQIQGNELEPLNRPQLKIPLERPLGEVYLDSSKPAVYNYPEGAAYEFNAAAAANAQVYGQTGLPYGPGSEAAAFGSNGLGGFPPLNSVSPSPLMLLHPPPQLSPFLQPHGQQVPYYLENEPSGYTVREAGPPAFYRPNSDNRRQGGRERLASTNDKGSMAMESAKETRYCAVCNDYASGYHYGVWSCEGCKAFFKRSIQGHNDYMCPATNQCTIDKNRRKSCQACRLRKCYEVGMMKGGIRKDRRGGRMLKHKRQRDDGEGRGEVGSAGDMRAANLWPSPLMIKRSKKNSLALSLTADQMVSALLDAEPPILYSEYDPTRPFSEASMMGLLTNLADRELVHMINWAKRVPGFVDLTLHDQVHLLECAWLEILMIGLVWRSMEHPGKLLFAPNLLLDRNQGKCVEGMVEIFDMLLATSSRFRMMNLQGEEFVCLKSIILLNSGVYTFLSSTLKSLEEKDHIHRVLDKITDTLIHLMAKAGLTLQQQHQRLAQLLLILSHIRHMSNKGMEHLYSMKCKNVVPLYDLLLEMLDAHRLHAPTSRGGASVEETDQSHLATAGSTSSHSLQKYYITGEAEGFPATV
Experiment: Inhibition of ERalpha in human MCF7:WS8 cells assessed as increase in degradation of ERalpha incubated for 24 hrs by In-Cell Western assay
Assay type: cell-based
measurement.kind: IC50 (nM)
Enter your answer as a number in nM; do not include the unit.

Here `Cc1cc(F)cc(C)c1C(=O)c1sc2cc(O)ccc2c1Oc1ccc(OC2CN(CCCF)C2)cc1` was tested on Estrogen receptor (Homo sapiens, UniProt P03372), and its IC50 came to 1.02

Here `Cc1ccccc1C(=O)c1sc2cc(O)ccc2c1Oc1ccc(OCCN2CCC2)cc1` was tested on Estrogen receptor (Homo sapiens, UniProt P03372), and its IC50 came to 1.91

Here `O=C(c1ccccc1)c1sc2cc(O)ccc2c1Oc1ccc(OCCN2CC(CF)C2)cc1` was tested on Estrogen receptor (Homo sapiens, UniProt P03372), and its IC50 came to 1.02

Here `Cc1cc(F)ccc1C(=O)c1sc2cc(O)ccc2c1Oc1ccc(OC2CN(CCCF)C2)cc1` was tested on Estrogen receptor (Homo sapiens, UniProt P03372), and its IC50 came to 9.33

Here `Cc1ccc(C(=O)c2sc3cc(O)ccc3c2Oc2ccc(OCCN3CC(CF)C3)cc2)c(C)c1` was tested on Estrogen receptor (Homo sapiens, UniProt P03372), and its IC50 came to 1.45

###

experiment: Plasma concentration in C57BL/6 mouse at 100 mg/kg, po measured after 2 hrs by LC/MS-MS analysis; type: ADME, organism-based
For each record, write down the corresponding concentration at 2 h.
Enter your answer as a number in nM; do not include the unit.

Record `Cc1cc(F)cc(C)c1C(=O)c1sc2cc(O)ccc2c1Oc1ccc(OC2CN(CCCF)C2)cc1` , field concentration at 2 h: 2150

Record `Cc1cc(F)cc(C)c1C(=O)c1sc2cc(O)ccc2c1Oc1ccc(OCCN2CC[C@@H](CF)C2)cc1` , field concentration at 2 h: 163

Record `Cc1cc(F)cc(C)c1C(=O)c1sc2cc(O)ccc2c1Oc1ccc(OCCN2CC(CF)C2)cc1` , field concentration at 2 h: 659

###

test: Antiproliferative activity against human MCF7:WS8 cells assessed as reduction in cell viability incubated for 5 days by Hoechst 33258 dye based assay relative to control; assay type: functional; details: MCF7:WS8, 120 h
For each record, write down the corresponding Emax.
Enter your answer as a number in %; do not include the unit.

Record `O=C(c1ccc(O)cc1)c1sc2cc(O)ccc2c1Oc1ccc(OCCN2CC(CF)C2)cc1` , field Emax: 73

Record `Cc1ccccc1C(=O)c1sc2cc(O)ccc2c1Oc1ccc(OCCN2CC(CF)C2)cc1` , field Emax: 72

Record `O=C(c1cccc(F)c1)c1sc2cc(O)ccc2c1Oc1ccc(OCCN2CC(CF)C2)cc1` , field Emax: 78

Record `Cc1cc(F)cc(C)c1C(=O)c1sc2cc(O)ccc2c1Oc1ccc(OC2CN(CCCF)C2)cc1` , field Emax: 80

Record `Cc1ccc(C(=O)c2sc3cc(O)ccc3c2Oc2ccc(OCCN3CC(CF)C3)cc2)c(C)c1` , field Emax: 68

###

molecular target: Estrogen receptor (Homo sapiens); test: Inhibition of ERalpha in human MCF7:WS8 cells assessed as increase in degradation of ERalpha incubated for 24 hrs by In-Cell Western assay; format: cell-based
For each record, write down the corresponding log10 IC50.
Would you kindly interpret these values as log10 of IC50 expressed in nM?

Record `O=C(c1ccc(F)cc1)c1sc2cc(O)ccc2c1Oc1ccc(OCCN2CC(CF)C2)cc1` , field log10 IC50: 0.09

Record `Cc1cc(F)cc(C)c1C(=O)c1sc2cc(O)ccc2c1Oc1ccc(OCCN2CC[C@H](CF)C2)cc1` , field log10 IC50: 0.48

Record `Cc1ccccc1C(=O)c1sc2cc(O)ccc2c1Oc1ccc(OCCN2CC(C)C2)cc1` , field log10 IC50: -0.59

Record `Cc1cc(O)ccc1C(=O)c1sc2cc(O)ccc2c1Oc1ccc(OCCN2CC(CF)C2)cc1` , field log10 IC50: 0.71

Record `Cc1cc(F)cc(C)c1C(=O)c1sc2cc(O)ccc2c1Oc1ccc(OCCN2CC[C@@H](CF)C2)cc1` , field log10 IC50: 0.77

Record `O=C(c1ccccc1)c1sc2cc(O)ccc2c1Oc1ccc(OC2CN(CCCF)C2)cc1` , field log10 IC50: -0.15

Record `Cc1ccccc1C(=O)c1sc2cc(O)ccc2c1Oc1ccc(OC2CN(CCCF)C2)cc1` , field log10 IC50: 0.41

Record `O=C(c1ccc(O)cc1)c1sc2cc(O)ccc2c1Oc1ccc(OCCN2CC(CF)C2)cc1` , field log10 IC50: 0.91

Record `Cc1ccccc1C(=O)c1sc2cc(O)ccc2c1Oc1ccc(OCCN2CC[C@@H](CF)C2)cc1` , field log10 IC50: 1.02

###

For each record, write down the corresponding Efficacy.
Target: UniProtKB P03372
Sequence (whole entry): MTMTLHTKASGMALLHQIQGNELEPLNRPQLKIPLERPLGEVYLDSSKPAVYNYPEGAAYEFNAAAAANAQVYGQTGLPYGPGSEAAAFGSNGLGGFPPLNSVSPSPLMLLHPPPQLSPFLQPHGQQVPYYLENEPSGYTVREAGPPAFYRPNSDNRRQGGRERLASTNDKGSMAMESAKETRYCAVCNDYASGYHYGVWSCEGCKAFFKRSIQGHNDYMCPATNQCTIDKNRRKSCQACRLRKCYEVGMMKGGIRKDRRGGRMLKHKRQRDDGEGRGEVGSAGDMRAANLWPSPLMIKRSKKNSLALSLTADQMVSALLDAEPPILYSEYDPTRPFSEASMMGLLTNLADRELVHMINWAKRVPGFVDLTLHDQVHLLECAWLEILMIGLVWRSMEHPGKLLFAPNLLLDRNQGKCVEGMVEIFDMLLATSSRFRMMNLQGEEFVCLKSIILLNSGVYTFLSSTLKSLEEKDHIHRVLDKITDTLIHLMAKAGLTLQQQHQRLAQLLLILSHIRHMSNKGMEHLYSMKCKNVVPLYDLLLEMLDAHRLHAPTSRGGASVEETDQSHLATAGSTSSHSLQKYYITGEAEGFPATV
Assay: Inhibition of ERalpha in human MCF7:WS8 cells assessed as increase in degradation of ERalpha incubated for 24 hrs by In-Cell Western assay relative to control
Type: cell-based
Enter your answer as a number in %; do not include the unit.

Here `Cc1cc(F)ccc1C(=O)c1sc2cc(O)ccc2c1Oc1ccc(OCCN2CC(CF)C2)cc1` was tested on UniProtKB P03372, and its Efficacy came to 95

Here `Cc1ccccc1C(=O)c1sc2cc(O)ccc2c1Oc1ccc(OCCN2CC(CF)C2)cc1` was tested on UniProtKB P03372, and its Efficacy came to 92

Here `Cc1ccccc1C(=O)c1sc2cc(O)ccc2c1Oc1ccc(OCCN2CCC2)cc1` was tested on UniProtKB P03372, and its Efficacy came to 37

Here `Cc1cc(F)ccc1C(=O)c1sc2cc(O)ccc2c1Oc1ccc(OC2CN(CCCF)C2)cc1` was tested on UniProtKB P03372, and its Efficacy came to 95

Here `O=C(c1ccccc1)c1sc2cc(O)ccc2c1Oc1ccc(OC2CN(CCCF)C2)cc1` was tested on UniProtKB P03372, and its Efficacy came to 88

###

For each record, write down the corresponding Emax.
test: Antiproliferative activity against human MCF7:WS8 cells assessed as reduction in cell viability incubated for 5 days by Hoechst 33258 dye based assay relative to control; assay type: functional; settings: MCF7:WS8, 120 h
Enter your answer as a number in %; do not include the unit.

Record `Cc1ccccc1C(=O)c1sc2cc(O)ccc2c1Oc1ccc(OCCN2CCCCC2)cc1` , field Emax: 68

Record `O=C(c1cccc(F)c1)c1sc2cc(O)ccc2c1Oc1ccc(OC2CN(CCCF)C2)cc1` , field Emax: 70

Record `Cc1cc(F)cc(C)c1C(=O)c1sc2cc(O)ccc2c1Oc1ccc(OCCN2CC[C@H](CF)C2)cc1` , field Emax: 70

Record `O=C(c1ccc(OCCN2CCCCC2)cc1)c1c(-c2ccc(O)cc2)sc2cc(O)ccc12` , field Emax: 69

Record `Cc1cc(F)ccc1C(=O)c1sc2cc(O)ccc2c1Oc1ccc(OC2CN(CCCF)C2)cc1` , field Emax: 69

Record `Cc1ccccc1C(=O)c1sc2cc(O)ccc2c1Oc1ccc(OCCN2CCC2)cc1` , field Emax: 70

Record `Cc1ccccc1C(=O)c1sc2cc(O)ccc2c1Oc1ccc(OCCN2CC(C)C2)cc1` , field Emax: 69
